Target Entity: Grb2 SH2 (UniProt P62993)
Sequence (P62993 whole entry, looked up, the tested form may be a part): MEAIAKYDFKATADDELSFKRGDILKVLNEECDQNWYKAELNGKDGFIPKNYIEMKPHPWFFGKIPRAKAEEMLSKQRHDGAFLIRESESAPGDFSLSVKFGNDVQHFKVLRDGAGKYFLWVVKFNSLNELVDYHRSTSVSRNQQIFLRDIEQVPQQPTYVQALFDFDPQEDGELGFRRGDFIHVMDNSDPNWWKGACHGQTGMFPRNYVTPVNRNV
Experiment: SH2 binding enrichment of the phosphorylated peptide, bacterial display (enrichment ratio); higher = better substrate or ligand; peptides without Tyr show the background;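 note: peptide library displayed on the E. coli surface as eCPX fusions, selected cells deep-sequenced, score is each peptide's frequency after selection divided by its frequency in the input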
Please use the following SH2 binding enrichment ranges when assigning a class: lower segment (below 0.8), middle segment (0.8 to below 1), upper segment (1 or more)

| Macromolecule Sequence | Class |
| --- | --- |
| EKKKYYDAKIE [CASP5_Y104_T106A] | upper segment |
| TQFWLYFAGNL [SLC25A5_Y112] | lower segment |
| MSRNLYSGDCF [DDR2_Y736_Y740C_YF] | middle segment |
| VGGRIYIDDGL [PKLR_Y218] | middle segment |
| YSQNIYIQNRN [PKP2_Y631] | middle segment |
| LFEDRYLLGTS [ASS1_Y87_YF] | middle segment |
| PELIDYGKLWK [ACTN1_Y193_R197W] | middle segment |
| KDHPDYKFQAR [SOX10_Y171_P175A_YF] | middle segment |
| HKANEYFPVVI [ADAMTS18_Y764_L769I_YF] | lower segment |
| WISNRYPDFSS [PRPH2_Y184_L185P] | middle segment |
| PLYSKYWPNHI [GREB1L_Y1560_R1558S] | upper segment |
| DRQASYLDKVR [KRT16_Y131_L128Q] | middle segment |
| ISKQEYDEAGP [ACTC1_Y364] | middle segment |
